# Organism: Cavia porcellus
# Assay Details: Percent inhibition LTD4-induced contraction of guinea pig ileum at 3 uM of concentration
# Format: functional
Property: Inhibition (%)
Entry rule: numbers only, all in %.

For orientation, consider the following solved cases.
Requested read-out: Inhibition. Entry: CCCc1c(OCCCCCCCCCCCCc2nn[nH]n2)ccc(C(C)=O)c1O
47

Note, next up: CCCc1cc(C(C)=O)ccc1OCCCCCC(=O)O
0

Do the same for CCCc1c(OCCCCCCCCCCC(=O)O)ccc(C(C)=O)c1O please
79

Queued: CCCc1c(OCCCCCC#N)ccc(C(C)=O)c1O
0

Would you kindly repeat that for CCCc1c(OCCCCCC(=O)O)ccc(C(=O)OC)c1O ?
21

Same again, this time with C=CCc1c(OCCCCCC(=O)O)ccc(C(C)=O)c1O
29

Then this compound:
I am curious: what Inhibition value has been reported for CC(=O)c1ccc(OCCCCCC(=O)O)cc1O ?
11

---

Reported pIC50 values follow for various compounds
# Species: Cavia porcellus
# Assay Details: Negative logarithm of compound concentration that reduced an LTD4-induced contraction of guinea pig ileum by 50%
# Type: functional
// pIC50: -log10(molar conc.)

Would you please look over these solved cases?
Suppose we examine the compound CCCc1c(OCCCCCCN2CCN(C)CC2)ccc(C(C)=O)c1O ; what pIC50 value has been reported?
5.30

Lookup CCCc1c(OCCCCCCO)ccc(C(C)=O)c1O
5.40

Try CCCc1c(OCCCCCCN2CCOCC2)ccc(C(C)=O)c1O next.
5.50

Can you handle CCCc1c(OCCCCCCCCc2nn[nH]n2)ccc(C(C)=O)c1O next?
6.50

Please do the same for CCCc1c(OCCCCCCCCCc2nn[nH]n2)ccc(C(C)=O)c1O as well.
6.60

Record: CCCc1c(OCCCCCCN(C)C)ccc(C(C)=O)c1O
5.20

Would you mind doing CCCc1c(OCCCCCCCCCCc2nn[nH]n2)ccc(C(C)=O)c1O as well?
5.50

Would you mind doing CCCc1c(OCCCCCCCC(=O)O)ccc(C(C)=O)c1O as well?
6.10

Read the next record carefully.
May I ask what pIC50 has been recorded for CCCc1c(OCCCCCCCCCC(=O)O)ccc(C(C)=O)c1O ?
6.10

---

# Tested on: cysteinyl leukotriene receptor (Cavia porcellus)
# Assay Details: Inhibition of LTD4-induced contraction of guinea pig ileum.
Here, each record is paired with measured pKB data.
# answer = number (no unit)

Look up pKB: CCCc1c(OCCCCCCCc2nn[nH]n2)ccc(C(C)=O)c1O
7

Would you kindly repeat that for CCCc1c(OCCCCCCCCC(=O)O)ccc(C(C)=O)c1O ?
5.8

Also, CCCc1c(OCCCCCCc2nn[nH]n2)ccc(C(C)=O)c1O please.
7.1

Similarly, CCCc1c(OCCCCCCC(=O)O)ccc(C(C)=O)c1O ?
5.7

// next record CCCc1c(OCCCCC(=O)O)ccc(C(C)=O)c1O
5.8

Further cases:
If you can, please state the reported pKB value of CCCc1c(OCCCCCC(=O)O)ccc(C(C)=O)c1O .
6

Proceed to CCCc1c(OCCCCCC(=O)O)ccc(C(=O)CC)c1O
6.1

Try this compound next: CCCc1c(OCCCCCc2nn[nH]n2)ccc(C(C)=O)c1O
6.6
